assay-system: huFXII-his (human) (UniProt P00748)
Sequence (P00748 20-615, form in doubt): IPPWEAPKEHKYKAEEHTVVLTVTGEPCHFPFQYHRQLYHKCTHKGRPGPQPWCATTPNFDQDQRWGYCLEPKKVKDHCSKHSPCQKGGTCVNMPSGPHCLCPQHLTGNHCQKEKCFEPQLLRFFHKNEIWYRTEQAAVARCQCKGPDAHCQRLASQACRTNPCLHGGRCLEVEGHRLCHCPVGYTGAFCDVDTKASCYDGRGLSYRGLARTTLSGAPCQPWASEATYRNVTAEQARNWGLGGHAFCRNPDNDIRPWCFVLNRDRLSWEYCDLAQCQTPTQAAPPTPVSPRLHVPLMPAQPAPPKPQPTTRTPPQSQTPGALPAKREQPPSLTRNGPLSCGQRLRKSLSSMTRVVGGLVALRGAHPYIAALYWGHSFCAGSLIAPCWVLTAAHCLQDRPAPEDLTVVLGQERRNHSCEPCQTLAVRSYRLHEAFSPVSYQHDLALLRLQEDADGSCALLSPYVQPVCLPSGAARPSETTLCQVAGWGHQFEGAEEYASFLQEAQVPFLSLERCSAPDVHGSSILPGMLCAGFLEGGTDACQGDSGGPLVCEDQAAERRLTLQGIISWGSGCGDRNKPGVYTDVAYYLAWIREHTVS
experiment: cell-based or functional assay
readout-label: IC50 of inhibition of cleavage of chemical substrate S2302 by FXIIa (OD405) (µg/mL)
Respond with the bare value in µg/mL.

[
  {
    "binder": "FX-Y17-Y17 (antibody, V domains shown) VH: EVQLLESGGGLVQPGGSLRLSCAGSGFSFGSQTMSWVRQAPGKGLEWVSSISYISGRTYYADSVKGRFTISRDNSKNTLYLQMNSLRAEDTAVYYCTKGHAFDVWGQGTMVTVSS VL: EIVLTQSPATLSVSPGERATLSCRASQSVWSNLAWYQQKPGQAPRLLIYGASTRATGIPARFSGSGSGTEFTLTISSLQSEDFAVYYCQQYHKWPLSFGGGTKVEIK",
    "val": 0.0199
  }
]

Now examine the next entry.
Inquiry: Return value of IC50 of inhibition of cleavage of chemical substrate S2302 by FXIIa (OD405) for input FX-Y17 (antibody, V domains shown) VH: EVQLLESGGGLVQPGGSLRLSCAGSGFSFGSQTMSWVRQAPGKGLEWVSSISVISGRTYYADSVKGRFTISRDNSKNTLYLQMNSLRAEDTAVYYCTKSHAFDVWGQGTMVTVSS VL: EIVLTQSPATLSVSPGERATLSCRASQSVYSNLAWYQQKPGQAPRLLIYGASTRATGIPARFSGSGSGTEFTLTISSLQSEDFAVYYCQQYNKWPLSFGGGTKVEIK , no commentary.
Reply text: 0.0213
